Reference source: the supplement of paper PMC7214452

- Test system: KMS28PE (cancer type: MM)
- MEASUREMENT PROTOCOL: normalized area under the dose-response curve (viability relative to DMSO control) (fraction); higher = less sensitive (more viable cells)
- TEST CONDITIONS: exposure time not given
Where a name gives a salt, the structure may show the parent alone.
Output T for normalized area under the dose-response curve not less than 0.7; output F otherwise.

INSERT INTO assay_data (compound, assigned_class) VALUES
  ('Nc1cccc2c1C(=O)N(C1CCC(=O)NC1=O)C2=O (stereo not drawn) [Pomalidomide]', 'T'),
  ('C=CC(=O)N1CCC[C@@H](n2nc(-c3ccc(Oc4ccccc4)cc3)c3c(N)ncnc32)C1', 'T'),
  ('O=C(/C=C/c1cccc(S(=O)(=O)Nc2ccccc2)c1)NO', 'F'),
  ('Cc1cccc(/C=N/Nc2cc(N3CCOCC3)n3nc(-c4ccncc4)cc3n2)c1', 'T'),
  ('Cc1ccc(Nc2nccc(N(C)c3ccc4c(C)n(C)nc4c3)n2)cc1S(N)(=O)=O [Pazopanib hydrochloride]', 'T'),
  ('CCCS(=O)(=O)Nc1ccc(F)c(C(=O)c2c[nH]c3ncc(-c4ccc(Cl)cc4)cc23)c1F', 'T');
